Biological target: 3-hydroxy-3-methylglutaryl-coenzyme A reductase (Rattus norvegicus)
Sequence (P51639 whole entry): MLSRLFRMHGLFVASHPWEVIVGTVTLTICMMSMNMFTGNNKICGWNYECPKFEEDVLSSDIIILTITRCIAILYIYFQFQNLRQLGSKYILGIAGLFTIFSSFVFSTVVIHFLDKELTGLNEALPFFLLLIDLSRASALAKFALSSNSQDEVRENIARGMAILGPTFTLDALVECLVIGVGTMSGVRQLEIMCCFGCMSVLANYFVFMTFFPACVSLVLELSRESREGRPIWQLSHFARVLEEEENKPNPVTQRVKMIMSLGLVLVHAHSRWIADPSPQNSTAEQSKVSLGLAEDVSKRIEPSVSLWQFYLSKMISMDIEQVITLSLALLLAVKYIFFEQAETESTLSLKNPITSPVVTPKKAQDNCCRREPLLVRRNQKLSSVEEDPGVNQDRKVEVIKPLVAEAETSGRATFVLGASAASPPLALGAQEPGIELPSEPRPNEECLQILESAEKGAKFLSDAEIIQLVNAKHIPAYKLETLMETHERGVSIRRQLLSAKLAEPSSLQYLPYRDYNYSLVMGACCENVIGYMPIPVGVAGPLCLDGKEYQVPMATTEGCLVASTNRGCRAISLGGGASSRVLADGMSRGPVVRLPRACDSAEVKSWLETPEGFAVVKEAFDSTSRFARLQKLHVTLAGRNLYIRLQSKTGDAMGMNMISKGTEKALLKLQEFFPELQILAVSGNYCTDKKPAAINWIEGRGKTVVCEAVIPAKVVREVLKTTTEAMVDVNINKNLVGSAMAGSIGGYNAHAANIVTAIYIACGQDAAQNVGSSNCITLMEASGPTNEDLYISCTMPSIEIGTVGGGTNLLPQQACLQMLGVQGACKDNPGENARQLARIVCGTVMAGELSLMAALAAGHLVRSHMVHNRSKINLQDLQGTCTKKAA
Literature IC50 values, system: 3-hydroxy-3-methylglutaryl-coenzyme A reductase (Rattus norvegicus).
Attribute measured: IC50 (nM)

Cc1cc(-c2c(-c3ccc(F)cc3)nc(C(C)C)n2/C=C/[C@@H](O)C[C@@H](O)CC(=O)O)cc(C)c1F : 30

(a) CCC(C)(C)C(=O)O[C@H]1C[C@@H](C)[C@@H](OC(=O)NCc2ccccc2)[C@@H]2CC[C@H](C)[C@H](CC[C@@H]3C[C@@H](O)CC(=O)O3)C12 (some centres not stated)
(b) CC(C)c1c(C(=O)N2CCC[C@H](c3ccccc3)C2)nn(-c2ccc(F)cc2)c1CC[C@@H](O)C[C@@H](O)CC(=O)O
(c) O=C1C[C@H](O)C[C@@H](/C=C/c2c(Cl)cc(Cl)cc2OCCC23CC4CC(CC(C4)C2)C3)O1
(d) C[C@H]1C=C2C=C[C@H](C)[C@H](CC[C@@H]3C[C@@H](O)CC(=O)O3)C2[C@@H](OC(=O)c2ccc(F)cc2)C1 (some centres not stated)
Descending sort on IC50 required. To answer, write out the labels according to the requested order. c, d, a, b
